- Tested On: MOR (Rattus norvegicus, UniProt P33535)
- Construct: from tissue
- Sequence (P33535 whole entry): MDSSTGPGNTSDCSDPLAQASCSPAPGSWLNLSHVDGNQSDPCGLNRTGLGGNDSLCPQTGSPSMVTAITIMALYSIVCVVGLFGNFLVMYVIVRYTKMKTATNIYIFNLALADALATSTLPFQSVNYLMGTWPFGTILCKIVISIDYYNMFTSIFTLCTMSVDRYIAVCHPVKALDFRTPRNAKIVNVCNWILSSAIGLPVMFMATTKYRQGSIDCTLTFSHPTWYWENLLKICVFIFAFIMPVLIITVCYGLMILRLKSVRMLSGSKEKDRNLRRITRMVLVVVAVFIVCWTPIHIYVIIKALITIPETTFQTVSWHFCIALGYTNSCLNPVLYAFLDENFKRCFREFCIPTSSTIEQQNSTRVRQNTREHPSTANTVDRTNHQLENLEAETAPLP
- Protocol Summary: Opioid receptor binding, MOR, rat brain membranes
- Test Parameters: Table 1-4, rat brain membranes; read-out: Binding Ki MOR
As shown below, each of these molecules has a reported Ki value.

[
  {
    "Molecule": "CN1CC[C@]23c4c5ccc(O)c4O[C@H]2[C@H](N[C@@H](Cc2ccccc2)C(=O)O)CC[C@@]3(O)[C@H]1C5",
    "Value Units": "nM",
    "Ki": 6.91
  },
  {
    "Molecule": "CC(NC1CCC2(O)C3Cc4ccc(O)c5c4C2(CCN3C)C1O5)C(=O)O (stereo not shown)",
    "Value Units": "nM",
    "Ki": 3
  },
  {
    "Molecule": "CO[C@@]12CC[C@@H](N[C@@H](CCCCN)C(=O)O)[C@@H]3Oc4c(O)ccc5c4[C@@]31CCN(C)[C@@H]2C5",
    "Value Units": "nM",
    "Ki": 0.53
  },
  {
    "Molecule": "CO[C@@]12CCC(=O)[C@@H]3Oc4c(O)ccc5c4[C@@]31CCN(C)[C@@H]2C5 [Compound 14-OMO, 14-O-methyloxymorphone, reference compound]",
    "Value Units": "nM",
    "Ki": 0.1
  }
]

* * *

- Tested On: human MOP expressed in CHO cells (Homo sapiens)
- Construct: expressed in transfected cells; host or cells: CHO cells (per the unit's head)
- Sequence (P35372 whole entry): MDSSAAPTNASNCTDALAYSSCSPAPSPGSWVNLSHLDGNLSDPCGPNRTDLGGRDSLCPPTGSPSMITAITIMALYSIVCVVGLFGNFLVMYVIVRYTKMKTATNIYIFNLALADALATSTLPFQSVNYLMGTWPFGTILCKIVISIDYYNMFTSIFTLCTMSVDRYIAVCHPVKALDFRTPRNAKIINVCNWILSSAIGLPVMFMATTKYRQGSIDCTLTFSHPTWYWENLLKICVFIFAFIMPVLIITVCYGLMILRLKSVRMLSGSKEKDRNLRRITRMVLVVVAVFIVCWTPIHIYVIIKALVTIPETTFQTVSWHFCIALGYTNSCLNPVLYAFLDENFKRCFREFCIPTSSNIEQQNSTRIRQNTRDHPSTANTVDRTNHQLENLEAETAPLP
- Protocol Summary: [35S]GTPγS binding, antagonism at MOR (Ke against DAMGO)
- Format: biochemical
- Test Parameters: [35S]GTPγS binding, MOR Ke, Table 1-6, antagonist Ke measured against DAMGO
Measured Parameter: Kb (nM)

[
  {
    "Molecule": "CO[C@@]12CC[C@@H](NCC(=O)O)[C@@H]3Oc4c(O)ccc5c4[C@@]31CCN(CC1CC1)[C@@H]2C5",
    "Numeric Readout": 0.19
  },
  {
    "Molecule": "CO[C@@]12CC[C@H](NCCC(=O)O)[C@@H]3Oc4c(O)ccc5c4[C@@]31CCN(CC1CC1)[C@@H]2C5",
    "Numeric Readout": 0.27
  },
  {
    "Molecule": "CO[C@@]12CCC(=O)[C@@H]3Oc4c(O)ccc5c4[C@@]31CCN(CC1CC1)[C@@H]2C5 [Compound 14-OMe-NTX, 14-O-Methylnaltrexone, reference compound]",
    "Numeric Readout": 0.49
  }
]

* * *

- Tested On: MOR (Rattus norvegicus, UniProt P33535)
- Construct: from tissue
- Protocol Summary: Opioid receptor binding, MOR, rat brain membranes
- Test Parameters: Binding Ki (nM) MOR, in vitro binding assay, rat brain membranes
Measured Parameter: Ki (nM)

[
  {
    "Compound": "CO[C@@]12CC[C@H](N[C@@H](C)C(=O)OC(C)(C)C)[C@@H]3Oc4c(O)ccc5c4[C@@]31CCN(C)[C@@H]2C5",
    "Measured Parameter": "Ki",
    "Numeric Readout": 0.29
  },
  {
    "Compound": "COC12CCC(NC(C(=O)O)C(C)C)C3Oc4c(O)ccc5c4C31CCN(C)C2C5 (single isomer, unassigned) [Compound 30]",
    "Measured Parameter": "Ki",
    "Numeric Readout": 1.7
  },
  {
    "Compound": "CO[C@@]12CC[C@H](N[C@@H](CC(C)C)C(=O)OC(C)(C)C)[C@@H]3Oc4c(O)ccc5c4[C@@]31CCN(C)[C@@H]2C5",
    "Measured Parameter": "Ki",
    "Numeric Readout": 0.087
  }
]
